- TARGET_SYSTEM: human ether-à-go-go-related gene (hERG) potassium channel (human, UniProt Q12809)
- Sequence (Q12809 whole entry, looked up): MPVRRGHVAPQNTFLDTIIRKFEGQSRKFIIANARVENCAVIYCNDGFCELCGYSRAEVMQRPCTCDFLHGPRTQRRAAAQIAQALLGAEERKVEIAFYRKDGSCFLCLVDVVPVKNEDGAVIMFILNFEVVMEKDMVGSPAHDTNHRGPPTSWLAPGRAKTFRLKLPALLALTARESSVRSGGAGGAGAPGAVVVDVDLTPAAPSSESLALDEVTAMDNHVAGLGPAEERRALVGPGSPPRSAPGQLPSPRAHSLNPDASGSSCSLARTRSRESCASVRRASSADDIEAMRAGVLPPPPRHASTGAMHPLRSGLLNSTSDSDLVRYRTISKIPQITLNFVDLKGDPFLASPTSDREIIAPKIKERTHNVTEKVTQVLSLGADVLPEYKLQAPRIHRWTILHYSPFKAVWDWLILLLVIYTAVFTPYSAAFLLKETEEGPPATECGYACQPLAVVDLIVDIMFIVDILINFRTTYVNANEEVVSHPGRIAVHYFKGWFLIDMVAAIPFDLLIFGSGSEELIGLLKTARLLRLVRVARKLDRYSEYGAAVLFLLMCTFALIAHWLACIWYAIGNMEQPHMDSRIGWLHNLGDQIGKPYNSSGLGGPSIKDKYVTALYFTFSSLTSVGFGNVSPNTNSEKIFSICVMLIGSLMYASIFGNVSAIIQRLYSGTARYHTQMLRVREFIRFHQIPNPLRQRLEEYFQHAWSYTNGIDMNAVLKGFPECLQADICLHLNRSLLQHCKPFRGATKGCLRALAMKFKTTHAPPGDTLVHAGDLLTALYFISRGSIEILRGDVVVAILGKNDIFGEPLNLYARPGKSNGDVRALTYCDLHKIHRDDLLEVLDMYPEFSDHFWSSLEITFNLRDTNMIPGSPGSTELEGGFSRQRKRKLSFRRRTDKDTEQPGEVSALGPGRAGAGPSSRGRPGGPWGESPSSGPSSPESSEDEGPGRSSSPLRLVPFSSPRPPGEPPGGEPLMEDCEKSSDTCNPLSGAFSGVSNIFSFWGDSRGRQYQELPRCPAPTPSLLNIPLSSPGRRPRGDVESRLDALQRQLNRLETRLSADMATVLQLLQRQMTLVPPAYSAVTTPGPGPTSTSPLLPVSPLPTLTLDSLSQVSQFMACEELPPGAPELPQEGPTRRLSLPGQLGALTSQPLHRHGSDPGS
- TEST_DETAILS: primary screen, population patch clamp on CHO cells stably expressing hERG; higher = less effect of the substance
In all, about 310,000 compounds went through this assay and about 14,000 (4.5%) showed an effect of 50% or more. Effects have a minus sign here. The full list was thinned out, with strong results kept by preference.
Item-by-item account of hERG current change (%, negative = inhibition) at 10uM
OBSERVATION_TYPE: hERG current change (%, negative = inhibition) at 10uM (%)

| COMPOUND | QUANTITATIVE_RESULT |
| --- | --- |
| CCOC(=O)N1CCC(NC(=O)c2oc3c(C)c(C)ccc3c2C)CC1 | -32.2 |
| CCOC(=O)C1CCN(C2CCN(C(=O)c3oc4c(C)c(C)ccc4c3C)CC2)CC1 | -69.3 |
| Cc1ccc2c(C)c(C(=O)N3CCN(C4CCS(=O)(=O)C4)CC3)oc2c1C (stereo not drawn) | -4.49 |
| COc1cc(CNCCNCC(C)O)ccc1OCc1ccc(Cl)nc1 (stereo not drawn) | -8.7 |
| CC(C)(C)C(=O)CN1C(=O)NC2(CCCc3ccccc32)C1=O (stereo not drawn) | 14 |
| CN(CCc1ccccc1)c1ccc([N+](=O)[O-])cn1 | 2.08 |
| COc1cc(OC)c(OC)cc1CNCCNC(=O)c1nonc1N.Cl | -0.502 |
| COc1cc(CNCCNC(=O)c2nonc2N)ccc1OCc1ccc(Cl)nc1.Cl | -56.4 |
| O=C(CC12CC3CC(CC(C3)C1)C2)NC1CC1 | 23.2 |
| Cc1c(C(=O)N2CCOCC2)[nH]c2ccc(OCc3ccccc3)cc12 | -13.2 |
| COc1cc(CNCCNC(=O)c2nonc2N)ccc1OCc1ccc(Cl)cc1.Cl | -74.4 |
| Cc1ccc(C(=O)COC(=O)CNS(=O)(=O)c2ccc(C)cc2)cc1 | 12.4 |
| COc1cc(OC)cc(C(=O)Nc2ccc3c(c2)CCCN3C(=O)c2cccs2)c1 | -2.41 |
| CN(C)c1ccc(/C=N/N(CCO)C2=NS(=O)(=O)c3ccccc32)cc1 | 21.8 |
| CCOC(=O)c1cccc(C(=O)Oc2ccccc2)n1 | 14.6 |
| COc1cccc(CNCCNC(=O)c2nonc2N)c1.Cl | 9.27 |
| Cc1c(N)cccc1-n1cccc1 | 16.2 |
| Cc1c(C(=O)N2CCC(N3CCSCC3)CC2)oc2c(F)cccc12 | -34.9 |
| COC(=O)C1=CN(c2ccc(Cl)cc2)C=C(C(=O)OC)C1c1ccc([N+](=O)[O-])cc1 | 16.2 |
| CCOc1ccccc1C(=O)NCc1ccc2c(c1)OCO2 | -12.1 |
| O=C(c1ccc(Cl)cc1Cl)c1ncc(C(F)(F)F)cc1Cl | -10.1 |

---

- TARGET_SYSTEM: human ether-à-go-go-related gene (hERG) potassium channel (human, UniProt Q12809);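 note: peak tail current of the secondary pulse compared with the same well before compound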
- TEST_DETAILS: primary screen, population patch clamp on CHO cells stably expressing hERG; higher = less effect of the substance
Hit rate of the full screen: of about 310,000 compounds, about 14,000 (4.5%) showed an effect of 50% or more. The effect is printed as a negative number. The entries come from a sample that favours strong results as a whole.
OBSERVATION_TYPE: hERG current change (%, negative = inhibition) at 10uM (%)

| CHEMICAL_STRUCTURE | UNIT_TEXT | QUANTITATIVE_RESULT |
| --- | --- | --- |
| Nc1nc(SCC(=O)NCCCO)nc2sc3c(c12)CCC3 | % | -3.17 |
| NS(=O)(=O)c1ccc(CNS(=O)(=O)c2ccc3ccccc3c2)cc1 | % | 1.74 |
| Nc1nc(SCC(=O)NCCCN2CCOCC2)nc2sc3c(c12)CCC3 | % | -9.2 |
| CCN(CC)S(=O)(=O)c1ccc2c(c1)nc(CCC(=O)Nc1ccc3c(c1)OCO3)n2CC | % | -0.447 |
| Cc1ccc2c(c1)c1nnc(SCC(=O)Nc3ccc(N(C)C)cc3)nc1n2CC(=O)O | % | 6 |

---

- TARGET_SYSTEM: human ether-à-go-go-related gene (hERG) potassium channel (human, UniProt Q12809);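 note: peak tail current of the secondary pulse compared with the same well before compound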
- TEST_DETAILS: primary screen, population patch clamp on CHO cells stably expressing hERG; higher = less effect of the substance
The whole screen tested about 310,000 compounds, of which about 14,000 (4.5%) showed an effect of 50% or more. Effects have a minus sign here. This is one part of a sample in which strong results are shown more often than they occur.
OBSERVATION_TYPE: hERG current change (%, negative = inhibition) at 10uM (%)

| COMPOUND | QUANTITATIVE_RESULT |
| --- | --- |
| Cc1nc2c3ccccc3nc(SCC(=O)c3ccc(Cl)cc3)n2n1 | 2.48 |
| c1ccc(-n2cc(CNCCc3cscn3)c(-c3ccc4c(c3)OCO4)n2)cc1 | -65.4 |
| Cc1ccccc1CN1C(=O)[C@@H]2Cc3c([nH]c4ccccc34)C(C)(C)N2C1=O | 19 |
| COC(C/C=C\[C@@H](O)[C@H](C)OCc1ccccc1)OC | 25.7 |
| Cc1ccc(F)c(NC(=O)C2CCCCC2C(=O)O)c1 (centres unmarked) | 8.23 |

---

- TARGET_SYSTEM: human ether-à-go-go-related gene (hERG) potassium channel (human, UniProt Q12809);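 note: peak tail current of the secondary pulse compared with the same well before compound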
- TEST_DETAILS: primary screen, population patch clamp on CHO cells stably expressing hERG; higher = less effect of the substance
In all, about 310,000 compounds went through this assay and about 14,000 (4.5%) showed an effect of 50% or more. Effects have a minus sign here. The sample as a whole holds a higher share of strong results than the screen did.
OBSERVATION_TYPE: hERG current change (%, negative = inhibition) at 10uM (%)

| MOLECULE | UNIT_TEXT | QUANTITATIVE_RESULT |
| --- | --- | --- |
| CCOc1ccc(NC(=O)c2ccc(NC(=S)NC3CCCCC3)cc2)cc1 | % | 20.9 |
| CC1(C)C[C@H](O)[C@]2(CO)CC[C@]3(C)C(=CCC4[C@@]5(C)CC[C@H](O)C(C)(C)C5CC[C@]43C)[C@@H]2C1 (stereo partly shown) | % | -13.9 |
| O=C(/C=C/c1cccc([N+](=O)[O-])c1)N1CCN(Cc2ccccc2)CC1 | % | -47.5 |
| Cc1ccc(S(=O)(=O)CCC(=O)N2CCN(c3ccc(Cl)cc3)CC2)cc1 | % | -23.8 |

---

Here the recorded hERG current change (%, negative = inhibition) at 10uM is given for each entry.
- TARGET_SYSTEM: human ether-à-go-go-related gene (hERG) potassium channel (human, UniProt Q12809);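 note: peak tail current of the secondary pulse compared with the same well before compound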
- TEST_DETAILS: primary screen, population patch clamp on CHO cells stably expressing hERG; higher = less effect of the substance
- Description: Briefly, Chinese hamster ovary (CHO) cells stably expressing the hERG channel were dislodged from tissue culture flasks and dispensed into PPC plates. […] During the recording, background leak currents were estimated by a 100 ms step to -80 mV from an initial holding potential of -70 mV and subtracted from the subsequent current measurement. The campaign was conducted in two phases using slight differences in recording protocol. […]
Among all 310,000 compounds or so, about 14,000 (4.5%) showed an effect of 50% or more. Effects have a minus sign here. The sample holds strong results, similar compounds and a random draw of the others, so the mix is not that of the screen.
OBSERVATION_TYPE: hERG current change (%, negative = inhibition) at 10uM (%)

| COMPOUND | QUANTITATIVE_RESULT |
| --- | --- |
| COCc1ccc(C(=O)NC2CC(C)(C)Cc3c2cnn3-c2ccc(C)cc2)o1 (stereo not drawn) | -39.3 |
| CCC1(C)Cc2ccccc2-c2nc(NCCO)n(-c3ccc(C)cc3)c(=O)c21 (stereo not drawn) | -25.1 |
| CN(C)CCN(Cc1ccc(Cl)cc1)c1ccccn1.Cl | -74.4 |
| CCCCCc1ccc(-c2ccc(OC)cc2)nc1 | 19.7 |
| CN(C)CCN(Cc1ccccc1)c1ccccn1.Cl | -48.6 |
| C[N+](C)(C)CCN(Cc1ccc(Cl)cc1)c1ccccn1.[I-] | -14.4 |
| C=CCNC(=S)NNC(=O)CCC(O)CCCCC (stereo not drawn) | 16.4 |
| S=c1oc(-c2ccncc2)nn1CCc1ccncc1 | 13 |
| CCN(CC)S(=O)(=O)c1ccc(N2CCN(CCO)CC2)nc1 | -3.97 |
| COc1ccc(CN(CCN(C)C)c2ccccn2)cc1.O=C(O)/C=C\C(=O)O | -38.5 |
| O=C1CC(N2CCN(C/C=C/c3ccccc3)CC2)C(=O)N1Cc1ccc(N2CCCC2=O)cc1 (stereo not drawn) | -46.7 |
| S=C(NC1CCCC1)N1CCN(c2ncccn2)CC1 | -19.3 |
| COc1ccc(CCN2C(=O)CC(N3CCN(C/C=C/c4ccccc4)CC3)C2=O)cc1OC (stereo not drawn) | -43.9 |
| O=C1OC(N2CCN(C/C=C/c3ccccc3)CC2)c2ccccc21 (stereo not drawn) | 9.57 |
| CCN(CC)S(=O)(=O)c1ccc(N2CCN(c3ccccc3O)CC2)nc1 | -52.8 |
| COc1ccc(NC(=O)c2cc(S(=O)(=O)NCC3COc4ccccc4O3)ccc2F)cc1 (stereo not drawn) | -19.1 |
| COC(=O)c1cc2sc(Cl)cc2n1Cc1nc(-c2ccccc2)oc1C | 3.5 |
| O=C1CC(N2CCN(C/C=C/c3ccccc3)CC2)C(=O)N1Cc1cccs1 (stereo not drawn) | -74.8 |
| COc1cc([N+](=O)[O-])ccc1NC(=O)NCc1ccco1 | 10.9 |
| COc1cc(C(=O)Nc2ccc3c(c2)OCCO3)ccc1OC(F)F | -5.02 |
| COc1ccc(CCNC(=O)c2nnn(CC(=O)Nc3ccccc3C)c2N)cc1OC | 16.3 |

// provenance: paper PMC4336329
